studyTarget: T1, Human cKIT D1-5 (human cKIT ECD, C-terminal 6x His) (human, UniProt P10721 26-524)
T1 construct: also called human cKIT-His
T1 sequence (P10721 other isoform, or with tags, fused parts or gaps limits assumed): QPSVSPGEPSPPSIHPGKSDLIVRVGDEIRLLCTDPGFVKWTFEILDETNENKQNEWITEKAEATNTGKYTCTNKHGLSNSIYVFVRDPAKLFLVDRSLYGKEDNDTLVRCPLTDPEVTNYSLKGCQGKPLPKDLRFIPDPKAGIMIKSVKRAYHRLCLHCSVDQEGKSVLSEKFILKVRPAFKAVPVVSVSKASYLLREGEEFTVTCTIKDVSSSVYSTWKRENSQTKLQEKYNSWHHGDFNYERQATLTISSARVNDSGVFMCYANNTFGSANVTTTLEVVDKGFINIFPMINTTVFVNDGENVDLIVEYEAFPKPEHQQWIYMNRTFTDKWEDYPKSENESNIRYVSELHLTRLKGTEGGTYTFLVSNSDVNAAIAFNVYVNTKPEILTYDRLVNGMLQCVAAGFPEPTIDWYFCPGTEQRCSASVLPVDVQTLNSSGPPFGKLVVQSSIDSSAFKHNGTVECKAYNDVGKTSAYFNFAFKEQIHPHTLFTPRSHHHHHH
protocolDescription: SPR (Biacore 2000): antibody captured by anti-human Fc on CM5, cKIT ECD in solution, 25 C, 1:1 fit
Consider the following binders; for each one, report its Kd.
Answers are plain numbers, in nM.

| binder | outputUnit | Kd |
| --- | --- | --- |
| NEG086 (antibody, human IgG1, kappa, V domains shown, Humanized, optimized variant of 9P3; human IgG1 kappa) VH: EVQLVESGGGLVQPGGSLRLSCAASGFTFSDYYMAWVRQAPGKGLEWVANINQIAGSTYYVDSVQGRFTISRDNAKNSLYLQMNSLRAEDTAVYYCARGDYYGTTYWYFDVWGQGTTVTVSS VL: DIQMTQSPSSLSASVGDRVTITCRASQSISSYLNWYQQKPGKAPKLLIYYTSRLQSGVPSRFSGSGSGTDFTLTISSLQPEDFATYYCQQGRRLWSFGGGTKVEIKR | nM | 1.44 |

Lab note: next binder to report on.
### Prompt Dear colleague, please send me the reported Kd for NEG087 (antibody, human IgG1, kappa, V domains shown, Humanized, optimized variant of 9P3; human IgG1 kappa) VH: EVQLVESGGGLVQPGGSLRLSCAASGFTFSDYYMAWVRQAPGKGLEWVASINQNTGSTYYLDSVRGRFTISRDNAKNSLYLQMNSLRAEDTAVYYCARGDYYGTTYWYFDVWGQGTTVTVSS VL: DIQMTQSPSSLSASVGDRVTITCRASQSISSYLNWYQQKPGKAPKLLIYYTSRLQSGVPSRFSGSGSGTDFTLTISSLQPEDFATYYCQQGRRLWSFGGGTKVEIKR when you can.
### Response 1.13
